Hi there, I'd appreciate the recorded ELISA_avg for every entry that follows.
# TGT: T1, BCMA (Homo sapiens (Human), UniProt Q02223 1-54, limits assumed)
# T1 sequence: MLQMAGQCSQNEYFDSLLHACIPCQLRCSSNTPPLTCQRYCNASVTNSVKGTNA
# ASSAY_OVERVIEW: ELISA, format not described
# Parameters: unit not given here

// returns reported ELISA_avg for input D-domain SEQ ID NO: 53 (designed binder) MGSWIEFSWRLEAIRQRLQALGGSEAELAAFEKEIAAFESELQAYKGKGNPEVESLRSYAARIRQELQAYRHN
9.92

For D-domain SEQ ID NO: 250 (designed binder) MGSWHGFKYRLAIIKWWLEALGGSEAELAFFEEWIASFERDLQIYKGKGNPEVEALRKEAAAIRDELQAYRHN then?
6.03

Again, but for D-domain SEQ ID NO: 181 (designed binder) MGSWAEFDLRLRAIAKRLVALGGSEAELAAFEKEIAAFESELQAYKGKGNPEVEMLRLDAAYIRGVLQAYRHN
4.09

Also, D-domain SEQ ID NO: 135 (designed binder) MGSWIEFDRRLLAIHVRLWALGGSEAELAAFEKEIAAFESELQAYKGKGNPEVEVLRADAAKIRMELQAYRHN please.
13.7

Ok, now D-domain SEQ ID NO: 52 (designed binder) MGSWHEFTWRLIAIRERLFALGGSEAELAAFEKEIAAFESELQAYKGKGNPEVEELREYAASIRNMLQAYRHN
13

Would you kindly repeat that for D-domain SEQ ID NO: 49 (designed binder) MGSWTEFAWRLQAIHQRLQALGGSEAELAAFEKEIAAFESELQAYKGKGNPEVEELRVYAAKIRISLQAYRHN ?
18.7

Here is the next binder: D-domain SEQ ID NO: 226 (designed binder) MGSWYEFVTRLHAIDHRLKALGGSEADLAAFEKEIAAFESELQAYKGKGNPEVEWLRFYAAGIRMNLQAYRHN
4.12

// query: D-domain SEQ ID NO: 259 (designed binder) MGSWYNFKYRLAIIKFYLEALGGSEAELAQFEIWIAEFEHDLQGYKGKGNPEVEALRKEAAAIRDELQAYRHN
19.9

And the next one, D-domain SEQ ID NO: 330 (designed binder) MGSWTDFKTSLADIKAELEALGGSEAELAKFEYYIAIFEYRLQEYKGKGNPEVEALRKEAAAIRDELQAYRHN ?
18.8

Try the binder D-domain SEQ ID NO: 51 (designed binder) MGSWHEFTWRLVAIQQRLQALGGSEAELAAFEKEIAAFESELQAYKGKGNPEVEELRKFAAKIRYELQAYRHN
19.5

What about this binder? D-domain SEQ ID NO: 50 (designed binder) MGSWIEFAWRLQAIHQRLDALGGSEAELAAFEKEIAAFESELQAYKGKGNPEVEDLREYAANIRDSLQAYRHN
19

Request: D-domain SEQ ID NO: 157 (designed binder) MGSWYEFQDRLSAITTRLRALGGSEAELAAFEKEIAAFESELQAYKGKGNPEVELLRDKAAYIRFMLQAYRHN
10.1

Cool, now D-domain SEQ ID NO: 56 (designed binder) MGSWVEFAWRLTAIDQRLSALGGSEAELAAFEKEIAAFESELQAYKGKGNPEVENLRFYAAKIRSHLQAYRHN
8.43

Next binder: D-domain SEQ ID NO: 335 (designed binder) MGSWIIFKGYLAHIKHHLEALGGSEAELADFEFYIAIFEMELQKYKGKGNPEVEALRKEAAAIRDELQAYRHN
5.18

D-domain SEQ ID NO: 292 (designed binder) MGSWFAFKHRLAVIKYMLEALGGSEAELAFFEHWIAQFEHDLQQYKGKGNPEVEALRKEAAAIRDELQAYRHN ?
12

What do you have for D-domain SEQ ID NO: 254 (designed binder) MGSWGYFKYRLAMIKWYLEALGGSEAELASFESWIAEFEGSLQAYKGKGNPEVEALRKEAAAIRDELQAYRHN ?
13

What do you have for D-domain SEQ ID NO: 164 (designed binder) MGSWSEFVFRLDTIKSRLRALGGSEAELAAFEKEIAAFESELQAYKGKGNPEVETLRDQAAYIRLMLQAYRHN ?
19.9

Values from patent US20250026849A1
